Tested on: bradykinin response of isolated guinea pig ileum
Experiment: Anti-bradykinin activity on isolated guinea pig ileum
Details: isolated guinea pig ileum; pD2 of bradykinin is 7.4; higher numbers indicate higher potency
Procedure: In general, Anti-bradykinin activity was determined by the classical guinea pig ileum assay and on Chinese hamster ovary (CHO) cells expressing cloned human bradykinin B2 receptors. Anti-tumor activity was determined on cultured human cancer cell lines using the standard tetrazolium (MTT) assay. […]
REPORTED ENDPOINT: GPI: pA2 for bradykinin antagonist activity on isolated guinea pig ileum
Numbers only.

The following compounds have reported results that may help.
COMPOUND	VALUE REPORTED
CC(=O)Nc1ccc(C=CC(=O)NCC(=O)Nc2cccc(C(=O)NC(Cc3ccc4ccccc4c3)C(=O)O)c2)cc1 (centres unmarked)	5.0
N=C(Nc1ccc(CC(NC(=O)c2ccc3ccccc3c2)C(=O)O)cc1)NC1CCCCC1 (centres unmarked)	4.8
COc1cc(C=CC(=O)N[C@@H](Cc2ccc3ccccc3c2)C(=O)NC2CC(C)(C)NC(C)(C)C2)cc(OC)c1O	4.7

Each of the following entries comes with a recorded value; kindly state GPI: pA2 for bradykinin antagonist activity on isolated guinea pig ileum for each.
1. N=C(Nc1ccc(CC(=O)Nc2cccc(C(=O)O)c2)cc1)NC1CCCCC1
2. CN(C(=O)C(Cc1ccc(OCc2c(Cl)cccc2Cl)cc1)NC(=O)C=Cc1c(F)c(F)c(F)c(F)c1F)C1CC(C)(C)NC(C)(C)C1 (centres unmarked)
3. CC1(C)CC(NC(=O)[C@H](Cc2ccc3ccccc3c2)NC(=O)C(C2CCCCC2)C2CCCCC2)CC(C)(C)N1
4. N=C(N)Nc1ccc(CC(NC(=O)C(Cc2ccc3ccccc3c2)NC(=NC2CCCCC2)NC2CCCCC2)C(=O)O)cc1 (centres unmarked)
5. CN(C)c1ccc(C=CC(=O)NC(Cc2ccc3ccccc3c2)C(=O)N2CCSCC2)cc1 (centres unmarked)
6. CC1(C)CC(NC(=O)[C@H](Cc2ccc3ccccc3c2)NC(=N)CCCCCCCCCCCCC(=N)N[C@@H](Cc2ccc3ccccc3c2)C(=O)NC2CC(C)(C)NC(C)(C)C2)CC(C)(C)N1 [M254]
7. CN1CCN(NC(=O)[C@H](Cc2ccc3ccccc3c2)NC(=O)C=Cc2ccc(NC(=O)CCCCCCCCCCC(=O)O)cc2)CC1

1. 5.0
2. 4.9
3. 5.3
4. 5.2
5. 5.1
6. 5.1
7. 5.1
